Molecular target: CDK2/Cyclin E1 (Homo sapiens, UniProt P24941)
Test: Caliper LabChip EZ Reader mobility shift assay
Assay type: biochemical
Conditions: 2.5 nM CDK2/Cyclin E1(14-475), 100 μM ATP, 30 min preincubation; read-out: Caliper Assay (CDK2/CCNE1): IC50
pIC50: −log10 of the molar value.
# pIC50 per entry

// map CC1(C)C[C@@H]1C(=O)N1CC2(C1)CN(c1ncnc3ncsc13)CC2COCc1cccc(C2CCOCC2)n1 (stereo partly shown) to recorded pIC50 (system: CDK2/Cyclin E1 (Homo sapiens, UniProt P24941))
< 5.00

// map CC1(C)C[C@@H]1C(=O)N1CC2(CN(C(=O)c3cncs3)C[C@H]2COCc2ccn(C3CCCC3)n2)C1 to recorded pIC50 (system: CDK2/Cyclin E1 (Homo sapiens, UniProt P24941))
6.00 to 7.00

// map CC(OCc1cccc(C2CCOCC2)n1)[C@@H]1CN(C(=O)c2cncs2)CC12CN(C(=O)[C@H]1CC1(C)C)C2 (stereo partly shown) to recorded pIC50 (system: CDK2/Cyclin E1 (Homo sapiens, UniProt P24941))
< 5.00

Next:
// map CC1(C)C[C@@H]1C(=O)N1CC2(CN(C(=O)c3cncs3)C[C@H]2COc2cccc3c(C4CCOCC4)cccc23)C1 to recorded pIC50 (system: CDK2/Cyclin E1 (Homo sapiens, UniProt P24941))
6.00 to 7.00

// map CC1(C)C[C@@H]1C(=O)N1CC2(CN(C(=O)c3cncs3)C[C@H]2COCc2ccc(Cl)c(Cl)c2)C1 to recorded pIC50 (system: CDK2/Cyclin E1 (Homo sapiens, UniProt P24941))
5.00 to 6.00

// map CC(C)(C)CN1CC2(C1)CN(C(=O)c1cnccn1)C[C@H]2COCc1cccc(-c2ccc(C(F)(F)F)cc2)n1 to recorded pIC50 (system: CDK2/Cyclin E1 (Homo sapiens, UniProt P24941))
< 5.00
